Tested on: NCI-H23
experimental.details: NCI tumour cell line growth inhibition, 48 h
The source made the active and inactive calls. Rule as the data show it: active = GI50 up to about 1.1 µM and inactive = higher.
Would you mind answering with one of these outcomes? active, inactive

Use the examples below as a reference point.
O=c1[nH]nc(Cc2ccccc2)n1CCO = inactive
Cc1nn(-c2ccccc2)c2c1C(c1cc3ccccc3nc1Cl)NC(=O)N2 (stereo not drawn) = inactive
CN(CCCNC(=O)c1c2ccc3ccccc3c2nn1C)CCCNC(=O)c1c2ccc3ccccc3c2nn1C = inactive
CC[C@@]1(O)C(=O)OCc2c1cc1n(c2=O)Cc2cc3cc(OC)ccc3nc2-1 = active
CCOC(=O)N1CCN(Cc2cc(=O)n3cc(C)ccc3n2)CC1 = inactive
COC(=O)/C(=C/CC(N=C(c1ccccc1)c1ccccc1)C(=O)OC)N=C(c1ccccc1)c1ccccc1 (stereo not drawn) = inactive
Cc1ccc2sc3ccc(N)cc3c(=O)c2c1 = inactive
COc1cc(C(=O)CBr)c(OC)cc1C = inactive
C=C1C(=O)O[C@@H]2C[C@@]3(C)CC(=O)C=C(C)[C@@H]3C[C@H]12 = inactive
CC1(C)COC2(OC1)C1=NS(=O)(=O)CC13CCC2C3(C)C (stereo not drawn) = inactive

Task item: Look up the recorded call for CCCCOP1(=O)C=C(C)C(=C(Cl)Cl)C(C)=C1 (stereo not drawn) in this test.
Reply: inactive

Task item: Now the same for C[n+]1ccccc1/C1=c2\cc/c([nH]2)=C(\c2cccc[n+]2C)C2=N/C(=C(/c3cccc[n+]3C)C3C=CC(N3)/C(c3cccc[n+]3C)=C3/C=CC1=N3)C=C2
Reply: inactive

Task item: Now the same for COC1CC(CC2CCC(C)C(C(C)C(=O)O)O2)OC2(OC(C)(C3CCC(C)(C4OC(C5OC(O)(CO)C(C)CC5C)CC4C)O3)CC2C)C1C (stereo not drawn)
Reply: active

Task item: Now the same for CCC1=CC2CC(C(=O)OC)C1(N(C)C)C2=O (stereo not drawn)
Reply: inactive

Task item: Now the same for O=C1NCCS(=O)(=O)N[C@@H](CC2=CC=CCC2)C(=O)N2CCCC12 (stereo partly drawn)
Reply: inactive

Task item: Now the same for CC(=O)OCC(=O)OC[C@H](OCc1ccccc1)[C@@H]1[C@H](OC(C)=O)C(=O)N1Cc1ccccc1
Reply: inactive

Task item: Now the same for N#CCCSC(=S)C1CCCC1=N (stereo not drawn)
Reply: inactive

Task item: Now the same for NC(=O)C(=CNC(=S)Nc1ccccc1)C(N)=O
Reply: inactive

Task item: Now the same for CC(=O)SC(C[N+](=O)[O-])c1ccc2c(c1)OCO2 (stereo not drawn)
Reply: inactive

Task item: Now the same for CSc1ccc(/C=C/c2ccnc3ccccc23)cc1
Reply: inactive

Task item: Now the same for COc1cc2c(cc1OCCCCCCCCCCN1C(=O)c3cccc4cccc(c34)C1=O)N=C[C@@H]1CCCN1C2=O
Reply: inactive

Task item: Now the same for Cc1ccc(S(=O)(=O)N/N=C2\CC3C4CCC3C2C4)cc1 (stereo not drawn)
Reply: inactive

Task item: Now the same for CC(=O)Nc1ccc(-c2nnc(SCC(=O)Nc3ccc(Cl)cc3Cl)o2)cc1
Reply: inactive

Data provenance: ChEMBL document CHEMBL1201862
